Attribution: ChEMBL document CHEMBL5244272

# Tested on: Plasmodium falciparum
# test-description: Antimalarial activity against Plasmodium falciparum Dd2
# Assay type: functional, organism-based
Recorded pIC50 for the following compounds
# pIC50 is unitless: minus log10 of the molar concentration; print number only

[[record]]
compound = "C[C@H]1[C@H](N2CCN(C(=O)Nc3ccccc3)CC2)O[C@@H]2O[C@]3(C)CC[C@H]4[C@H](C)CC[C@@H]1[C@@]24OO3"
quantity_kind = "pIC50"
result = 8.12


Q: Find the measured pIC50 of C[C@@H]1CC[C@H]2[C@@H](C)C(=O)O[C@@H]3O[C@@]4(C)CC[C@@H]1[C@]32OO4 [ARTEMISININ] with Plasmodium falciparum as test system.
Result: 7.89

Q: Find the measured pIC50 of `C[C@H]1[C@H](N2CCN(C(=O)Nc3ccc(F)cc3)CC2)O[C@@H]2O[C@]3(C)CC[C@H]4[C@H](C)CC[C@@H]1[C@@]24OO3` with Plasmodium falciparum as test system.
Result: 8.04

Q: Find the measured pIC50 of `C[C@H]1[C@H](N2CCN(C(=O)c3ccc(F)cc3)CC2)O[C@@H]2O[C@]3(C)CC[C@H]4[C@H](C)CC[C@@H]1[C@@]24OO3` with Plasmodium falciparum as test system.
Result: 8.82

Q: Find the measured pIC50 of `C[C@H]1[C@H](N2CCN(C(=O)c3ccc(C(F)(F)F)cc3)CC2)O[C@@H]2O[C@]3(C)CC[C@H]4[C@H](C)CC[C@@H]1[C@@]24OO3` with Plasmodium falciparum as test system.
Result: 7.88

Q: Find the measured pIC50 of C[C@H]1[C@@H](O)O[C@@H]2O[C@@]3(C)CC[C@H]4[C@H](C)CC[C@@H]1[C@@]24OO3 [ARTENIMOL] with Plasmodium falciparum as test system.
Result: 8.38

Q: Find the measured pIC50 of C1C2CC3CC1CC(C2)[C@]31OO[C@@]2(CCC(Nc3nn[nH]n3)CC2)O1 (some centres undefined) with Plasmodium falciparum as test system.
Result: 8.60

Q: Find the measured pIC50 of Cn1nnc(NCC2CC[C@]3(CC2)OO[C@]2(O3)C3CC4CC(C3)CC2C4)n1 (some centres undefined) with Plasmodium falciparum as test system.
Result: 8.68

Q: Find the measured pIC50 of `C[C@H]1[C@H](N2CCN(C(=O)Nc3ccc(C(F)(F)F)cc3)CC2)O[C@@H]2O[C@]3(C)CC[C@H]4[C@H](C)CC[C@@H]1[C@@]24OO3` with Plasmodium falciparum as test system.
Result: 7.91
